# ΔTm at 200 µM listing for each entry below
molecular target: hRORγ (Homo sapiens); assay: protein thermal stability shift assay (TSA); settings: read-out: ΔTm (TSA detection technique), hRORγ 10 μM, compound 200 μM

Worked examples, 5 molecules total:
* CCS(=O)(=O)c1ccc(C(NC(C)=O)C(=O)Nc2ccc(-c3nc4ccc(C)cc4n3[C@@H](C)c3ccc(C)cc3)cc2)cc1 (some centres unmarked) [Example 73] | < 5 °C
* CCS(=O)(=O)c1ccc(CC(=O)Nc2ccc(-c3nc4ccc(OC)cc4s3)cc2)cc1 [Example 31] | 5 to 10 °C
* CCS(=O)(=O)c1ccc(CC(=O)Nc2ccc(-c3nc4cc(Cl)c(Cl)cc4n3Cc3ccccc3)cc2)cc1 [Example 86] | < 5 °C
* Cc1ccc2nc(-c3ccc(NS(=O)(=O)Cc4cccc(N)c4)cc3)sc2c1 [Example 24] | > 10 °C
* CCS(=O)(=O)c1ccc(CC(=O)Nc2ccc(-c3nc4cc(C)c(C)cc4n3Cc3ccccc3)cc2)cc1 [Example 85] | < 5 °C

## Input Could you tell me which ΔTm at 200 µM is on file for CCS(=O)(=O)c1ccc(CC(=O)Nc2ccc(-c3nc4ccc(C)cc4s3)c(Cl)c2)cc1 [Example 29] ?
## Output 5 to 10 °C

## Input Query: ΔTm at 200 µM; subject: CCS(=O)(=O)c1ccc(C(NC(C)=O)C(=O)Nc2ccc(-c3nc4cc(C(=O)NC(C)C)ccc4n3[C@@H](C)c3ccc(C)cc3)cc2)cc1 (some centres unmarked) [Example 79]
## Output 5 to 10 °C

## Input Dear colleague, I am looking for the recorded ΔTm at 200 µM of the following molecule: Cc1cc(C)c(S(=O)(=O)Nc2ccc(-c3nc4ccc(C)cc4s3)cc2)c(C)c1 [Example 10]
## Output > 10 °C

----------
molecular target: hRORγ (Homo sapiens); assay: protein thermal stability shift assay (TSA); conditions: read-out: ΔTm (TSA detection technique), hRORγ 10 μM, compound 200 μM
readout.name: ΔTm at 200 µM

Illustrative cases are given below, each with its answer.
* CCS(=O)(=O)c1ccc(CC(=O)Nc2ccc(-c3nc4cc(C(=O)NC5CCCC5)ccc4n3[C@H](C)c3ccc(C)cc3)cc2)cc1 | 5 to 10 °C
* Cc1ccc2nc(-c3ccc(NS(=O)(=O)Cc4ccc(C#N)cc4)cc3)sc2c1 | > 10 °C
* CCS(=O)(=O)c1ccc(CC(=O)Nc2ccc(-c3nc4cc(Cl)ccc4n3Cc3ccccc3)cc2)cc1 | 5 to 10 °C

## Input Field request: ΔTm at 200 µM | item: CCCCCn1c(-c2ccc(NC(=O)C(NC(C)=O)c3ccc(S(=O)(=O)CC)cc3)cc2)nc2ccc(C)cc21 (stereo not shown)
## Output < 5 °C

----------
assay: Pharmacokinetic evaluations in SD rats; assay type: in vivo; conditions: Sprague-Dawley, rat, plasma, iv (5 mg/kg)
Listing: Cmax of selected compounds
# output: bare number, implied unit ng/mL

- CCS(=O)(=O)c1ccc(CC(=O)Nc2ccc(-c3nc4ccc(C(F)(F)F)cc4n3[C@H](C)c3ccc(F)cc3)cc2)cc1: 18400

# input for lookup
## Input For the compound shown here, CCS(=O)(=O)c1ccc(CC(=O)Nc2ccc(-c3nc4ccc(C(F)(F)F)cc4n3[C@@H](C)c3ccc(F)cc3)cc2)cc1 , give the reported Cmax.
## Output 14800

----------
target: RORγ (Homo sapiens); test: luciferase dual reporter gene assay, Gal4-RORγLBD in 293T cells; settings: IC50 (luciferase detection technique), RORγ transcriptional activity, Table 1
pIC50: −log10 of the molar value.
# pIC50 per record follows

Some solved cases for reference:
* CCS(=O)(=O)c1ccc(CC(=O)Nc2ccc(-c3nc4ccc(C)cc4[nH]3)cc2)cc1 | 5.00 to 6.00
* CCS(=O)(=O)c1ccc(C(NC(C)=O)C(=O)Nc2ccc(-c3nc4cc(C(=O)NC(C)C)ccc4n3[C@@H](C)c3ccc(C)cc3)nc2)cc1 (stereo partly drawn) | 5.00 to 6.00

## Input Observed pIC50 on RORγ (Homo sapiens) for CCS(=O)(=O)c1ccc(C(NC(C)=O)C(=O)Nc2ccc(-c3nc4cc(C(=O)NC(C)C)ccc4n3[C@H](C)c3ccc(C)cc3)cc2)cc1 (stereo partly drawn) , please.
## Output 5.00 to 6.00

----------
Biological target: RORγ (Homo sapiens)
Sequence (P51449 269-508 limits assumed): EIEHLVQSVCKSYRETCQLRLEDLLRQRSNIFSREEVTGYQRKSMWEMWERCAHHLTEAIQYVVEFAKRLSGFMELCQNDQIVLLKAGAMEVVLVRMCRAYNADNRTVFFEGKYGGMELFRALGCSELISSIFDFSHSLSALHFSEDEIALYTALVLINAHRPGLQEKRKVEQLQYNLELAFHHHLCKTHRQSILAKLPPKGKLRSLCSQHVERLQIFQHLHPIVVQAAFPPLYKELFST
Assay: luciferase dual reporter gene assay, Gal4-RORγLBD in 293T cells
Conditions: IC50 (luciferase detection technique), RORγ transcriptional activity, Table 1
pIC50: −log10 of the molar value.
Listed next: entries and their corresponding pIC50.

The examples below pair each entry with its known result.
- CCS(=O)(=O)c1ccc(C(NC(C)=O)C(=O)Nc2ccc(-c3nc4cc(C(=O)NC(C)C)ccc4n3[C@@H](C)c3ccc(C)cc3)cc2)cc1 (some centres unmarked): 5.00 to 6.00
- CCS(=O)(=O)c1ccc(CC(=O)Nc2ccc(-c3nc4cc(C)c(C)cc4n3Cc3ccccc3)cc2)cc1: 6.00 to 7.00
- CCS(=O)(=O)c1ccc(CC(=O)Nc2ccc(-c3nc4ccc(F)cc4s3)cc2)cc1: 5.00 to 6.00
- CCCCCCC(=O)Nc1ccc(-c2nc3ccc(C)cc3s2)cc1: > 7.00
- CCS(=O)(=O)c1ccc(CC(=O)Nc2ccc(-c3nc4ccc(C(=O)NC5CCCC5)cc4n3[C@H](C)c3ccc(C)cc3)cc2)cc1: > 7.00

## Input Dear colleague, I am looking for the recorded pIC50 of the following compound: CCS(=O)(=O)c1ccc(C(NC(C)=O)C(=O)Nc2ccc(-c3nc4ccc(C)cc4n3[C@@H](C)c3ccc(C)cc3)cc2)cc1 (some centres unmarked) [Example 73]
## Output > 7.00

## Input Recorded pIC50 of CCCCCn1c(-c2ccc(NC(=O)C(NC(C)=O)c3ccc(S(=O)(=O)CC)cc3)cc2)nc2ccc(C)cc21 (centres unmarked) , please.
## Output > 7.00

## Input Please give the measured pIC50 for this compound: Cc1cc(C)c(S(=O)(=O)Nc2ccc(-c3nc4ccc(C)cc4s3)cc2)c(C)c1
## Output 5.00 to 6.00

## Input What measured pIC50 goes with Cc1ccc2nc(-c3ccc(NS(=O)(=O)Cc4ccc(C#N)cc4)cc3)sc2c1 ?
## Output 5.00 to 6.00

## Input What value of pIC50 has been reported for the following compound? CCS(=O)(=O)c1ccc(C(NC(C)=O)C(=O)Nc2ccc(-c3nc4ccc(C)cc4n3[C@@H](C)c3ccc(C)cc3)cc2)cc1 (single isomer, unassigned) [Example 75]
## Output 6.00 to 7.00

## Input I have this compound here, CCS(=O)(=O)c1ccc(CC(=O)Nc2ccc(-c3nc4ccc(C)cc4s3)c(Cl)c2)cc1 , and I need its recorded pIC50.
## Output 6.00 to 7.00

## Input Fill blank: measured pIC50 of the compound CCS(=O)(=O)c1ccc(C(NC(C)=O)C(=O)Nc2ccc(-c3nc4ccc(C)cc4n3[C@@H](C)c3ccc(C)cc3)cc2)cc1 (single isomer, unassigned) [Example 74] is ____.
## Output > 7.00

## Input Field request: pIC50 | item: Cc1ccc2nc(-c3ccc(NS(=O)(=O)Cc4cccc(N)c4)cc3)sc2c1
## Output 4.00 to 5.00

## Input What value of pIC50 has been reported for the following compound? Cc1ccc2nc(-c3ccc(NS(=O)(=O)c4ccc([N+](=O)[O-])cc4)cc3)sc2c1
## Output 5.00 to 6.00

----------
Recorded ΔTm at 200 µM for the following compounds
biological target: hRORγ (Homo sapiens); experiment: protein thermal stability shift assay (TSA); settings: read-out: ΔTm (TSA detection technique), hRORγ 10 μM, compound 200 μM

Use these answered entries as a reference point.
* CCS(=O)(=O)c1ccc(CC(=O)Nc2ccc(-c3nc4ccc(C)cc4[nH]3)cc2)cc1 [Example 87] | > 10 °C
* Cc1ccc(CS(=O)(=O)Nc2ccc(-c3nc4ccc(C)cc4s3)cc2)cc1 [Example 12] | > 10 °C
* CCS(=O)(=O)c1ccc(C(NC(C)=O)C(=O)Nc2ccc(-c3nc4cc(C(=O)NC(C)C)ccc4n3[C@H](C)c3ccc(C)cc3)nc2)cc1 (stereo partly shown) [Example 83] | < 5 °C

## Input Please give the measured ΔTm at 200 µM for this compound: CCS(=O)(=O)c1ccc(C(NC(C)=O)C(=O)Nc2ccc(-c3nc4cc(C(=O)NC(C)C)ccc4n3[C@H](C)c3ccc(C)cc3)cc2)cc1 (stereo partly shown) [Example 78]
## Output 5 to 10 °C

## Input // lookup ΔTm at 200 µM for Cc1ccc(CC(=O)Nc2ccc(-c3nc4ccc(C)cc4s3)cc2)cc1 [Example 27]
## Output > 10 °C

## Input Item Cc1ccc2nc(-c3ccc(NS(=O)(=O)c4ccc([N+](=O)[O-])cc4)cc3)sc2c1 [Example 5] has what recorded ΔTm at 200 µM?
## Output < 5 °C

## Input Quick one: ΔTm at 200 µM of CCCCCCC(=O)Nc1ccc(-c2nc3ccc(C)cc3s2)cc1 [Example 26] ?
## Output > 10 °C
